The values you see were collected from patent US20120309750A1.

- systemUnderTest: yeast HSP90 (Saccharomyces cerevisiae)
- Sequence (P02829 whole entry): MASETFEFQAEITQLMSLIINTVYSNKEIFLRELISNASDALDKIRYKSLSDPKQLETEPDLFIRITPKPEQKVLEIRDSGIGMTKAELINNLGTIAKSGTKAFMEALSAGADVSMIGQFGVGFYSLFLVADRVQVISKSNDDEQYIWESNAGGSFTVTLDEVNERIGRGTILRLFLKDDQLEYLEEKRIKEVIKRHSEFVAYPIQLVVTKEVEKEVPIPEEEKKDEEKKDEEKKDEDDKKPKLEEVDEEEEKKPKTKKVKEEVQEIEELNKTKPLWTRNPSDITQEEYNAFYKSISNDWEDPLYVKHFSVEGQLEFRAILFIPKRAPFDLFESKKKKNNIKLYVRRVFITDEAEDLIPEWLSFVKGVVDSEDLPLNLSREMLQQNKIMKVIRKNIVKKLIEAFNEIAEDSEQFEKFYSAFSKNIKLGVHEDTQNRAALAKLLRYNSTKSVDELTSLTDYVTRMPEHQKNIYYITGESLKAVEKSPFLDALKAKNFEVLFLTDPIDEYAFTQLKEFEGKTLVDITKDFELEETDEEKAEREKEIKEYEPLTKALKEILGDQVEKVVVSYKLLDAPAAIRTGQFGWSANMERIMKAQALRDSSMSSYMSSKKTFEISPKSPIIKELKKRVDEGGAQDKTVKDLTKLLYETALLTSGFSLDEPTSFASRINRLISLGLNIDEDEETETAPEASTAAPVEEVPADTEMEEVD
- assay: Hsp90 ATPase assay (malachite green)
- Assay type: biochemical
Reported IC50 values for a set of compounds

// IC50 lookup, key: CCNC(=O)c1noc(-c2cc(C(C)C)c(O)cc2O)c1-c1noc(N2CCCC2)n1 500 to 1000 nM

// IC50 lookup, key: CCNC(=O)c1noc(-c2cc(C(C)C)c(O)cc2O)c1-c1nnn(CC)n1 < 500 nM

// IC50 lookup, key: CCNC(=O)c1noc(-c2cc(C(C)C)c(O)cc2O)c1C1CC(C(=O)OCC)=NO1 (stereo not shown) 500 to 1000 nM

// IC50 lookup, key: CCNC(=O)c1noc(-c2cc(C(C)C)c(O)cc2O)c1-c1ccnn1C < 500 nM

// IC50 lookup, key: CCCn1ccc(-c2c(C(=O)NCC)noc2-c2cc(C(C)C)c(O)cc2O)n1 500 to 1000 nM

====

Reported IC50 values for a set of compounds
- systemUnderTest: UniProt:P02829
- assay: Hsp90 ATPase assay (malachite green)
- Format: biochemical

Recorded IC50, per entry:
compound: CCNC(=O)c1noc(-c2cc(C(C)C)c(O)cc2O)c1-c1noc(CC)n1 [Compound I-62]
IC50: < 500 nM
//
compound: CCNC(=O)c1noc(-c2cc(C(C)C)c(O)cc2O)c1-c1ccsc1CN1CCOCC1 [Compound I-2]
IC50: > 1000 nM

// IC50 lookup, key: CCNC(=O)c1noc(-c2cc(C(C)C)c(O)cc2O)c1-c1noc(C(=O)N(C)C)n1 [Compound I-64] < 500 nM

====

Reported IC50 values for a set of compounds
- systemUnderTest: yeast HSP90 (Saccharomyces cerevisiae)
- assay: Hsp90 ATPase assay (malachite green)
- Format: biochemical

compound: CCNC(=O)c1noc(-c2cc(C(C)C)c(O)cc2O)c1-c1noc(C(=O)OC)n1 [Compound I-58]
IC50: 500 to 1000 nM
--
compound: CCNC(=O)c1noc(-c2cc(C(C)C)c(O)cc2O)c1-c1cc(CN(C)C)no1 [Compound I-41]
IC50: < 500 nM

Could you share what IC50 was measured for C=CCNCc1cc(-c2c(C(=O)NCC)noc2-c2cc(C(C)C)c(O)cc2O)on1 [Compound I-44] , tested on yeast HSP90 (Saccharomyces cerevisiae)? < 500 nM

Could you share what IC50 was measured for CCNC(=O)c1noc(-c2cc(C(C)C)c(O)cc2O)c1-c1cc(CC#N)no1 [Compound I-35] , tested on yeast HSP90 (Saccharomyces cerevisiae)? < 500 nM

====

Reported IC50 values for a set of molecules
- systemUnderTest: yeast HSP90 (Saccharomyces cerevisiae)
- assay: Hsp90 ATPase assay (malachite green)
- Format: biochemical

Recorded IC50, per entry:
smilesString: CCNC(=O)c1noc(-c2cc(C(C)C)c(O)cc2O)c1-c1cc(CNCCO)no1
metric: IC50
testValue: 500 to 1000 nM

smilesString: CCNC(=O)c1noc(-c2cc(C(C)C)c(O)cc2O)c1-c1noc(-c2cccs2)n1
metric: IC50
testValue: 500 to 1000 nM

smilesString: CCNC(=O)c1noc(-c2cc(C(C)C)c(O)cc2O)c1-c1ccn(CC)n1
metric: IC50
testValue: 500 to 1000 nM

smilesString: CCNC(=O)c1noc(-c2cc(C(C)C)c(O)cc2O)c1-c1cc(CN2CCN(C)CC2)no1
metric: IC50
testValue: 500 to 1000 nM

smilesString: CCNC(=O)c1noc(-c2cc(C(C)C)c(O)cc2O)c1-c1cc(/C=N/O)no1
metric: IC50
testValue: 500 to 1000 nM

// IC50 lookup, key: CCNC(=O)c1noc(-c2cc(C(C)C)c(O)cc2O)c1-c1noc(C(=O)N(CC)CC)n1 500 to 1000 nM

// IC50 lookup, key: CCNC(=O)c1noc(-c2cc(C(C)C)c(O)cc2O)c1-c1cc(COCC(=O)OC)no1 < 500 nM

// IC50 lookup, key: CCNC(=O)c1noc(-c2cc(C(C)C)c(O)cc2O)c1-c1noc(C(=O)N2CCOCC2)n1 500 to 1000 nM
